# Test system: MRSA ATCC 43300
# Method summary: MIC, broth microdilution (CO-ADD), MRSA
# Format: cell-based, methicillin-resistant S. aureus
# Particulars: Staphylococcus aureus; MRSA ATCC 43300; top dose 32 µg/mL; read-out: MIC MRSA
Quantity: MIC

Molecule | Assay target | MIC
O=C(NCCCNCCCCCCCNCCCNC(=O)c1c[nH]c2c(F)cccc12)c1c[nH]c2c(F)cccc12 [Compound 16c] | MRSA ATCC 43300 | ≤ 0.31 µM
Cc1cccc2c(C(=O)NCCCNCCCCCCCCCCNCCCNC(=O)c3c[nH]c4c(C)cccc34)c[nH]c12 [Compound 18e] | MRSA ATCC 43300 | ≤ 0.3 µM
O=C(NCCCNCCCCCCCNCCCNC(=O)c1c[nH]c2ccc(Br)cc12)c1c[nH]c2ccc(Br)cc12 [Compound 13c] | MRSA ATCC 43300 | ≤ 0.27 µM
Cc1ccc2[nH]cc(C(=O)NCCCNCCCCCCCCNCCCNC(=O)c3c[nH]c4ccc(C)cc34)c2c1 [Compound 15d] | MRSA ATCC 43300 | ≤ 0.31 µM
O=C(NCCCNCCCCCCCCNCCCNC(=O)c1c[nH]c2ccccc12)c1c[nH]c2ccccc12.O=C(O)C(F)(F)F.O=C(O)C(F)(F)F [Compound 12d] | MRSA ATCC 43300 | ≤ 0.32 µM
Cc1ccc2[nH]cc(C(=O)NCCCNCCCCCCNCCCNC(=O)c3c[nH]c4ccc(C)cc34)c2c1 [Compound 15b] | MRSA ATCC 43300 | 5.18 µM

Now for the molecule whose MIC we want.
Which measured MIC belongs to COc1ccc2[nH]cc(C(=O)NCCCNCCCCCCNCCCNC(=O)c3c[nH]c4ccc(OC)cc34)c2c1 [Compound 14b] , tested on MRSA ATCC 43300? ≤ 0.31 µM

---

# Test system: E. coli ATCC 25922
# Method summary: Erythromycin potentiation against E. coli
# Format: cell-based, Escherichia coli
# Particulars: erythromycin at 2 µg/mL (2.7 µM), mean n = 3
This section presents compounds with their documented Erythro/Ec: concentration required to restore erythromycin activity (combination MIC) values.

Compound | Result
COc1cccc2c(C(=O)NCCCNCCCCCCNCCCNC(=O)c3c[nH]c4c(OC)cccc34)c[nH]c12 [Compound 17b] | > 248 µM
Cc1cccc2c(C(=O)NCCCNCCCCCCCNCCCNC(=O)c3c[nH]c4c(C)cccc34)c[nH]c12 [Compound 18c] | > 254 µM
COc1cccc2c(C(=O)NCCCNCCCCNCCCNC(=O)c3c[nH]c4c(OC)cccc34)c[nH]c12 [Compound 17a] | > 257 µM

Requested read-out: Erythro/Ec: concentration required to restore erythromycin activity (combination MIC). Entry: Cc1cccc2c(C(=O)NCCCNCCCCNCCCNC(=O)c3c[nH]c4c(C)cccc34)c[nH]c12 [Compound 18a] > 269 µM

---

# Test system: S. aureus ATCC 25923
# Method summary: MIC, broth dilution, S. aureus
# Format: cell-based, Staphylococcus aureus
# Particulars: Staphylococcus aureus, ATCC25923; S. aureus ATCC 25923, 18 h; read-out: MIC Sa
Quick list: log10(MIC) per entry.
# log10 transformed; quantity=MIC; unit=µM

Consider the worked cases shown below.
Molecule | log10(MIC)
O=C(NCCCNCCCCCCNCCCNC(=O)c1c[nH]c2c(F)cccc12)c1c[nH]c2c(F)cccc12 [Compound 16b] | 2.41
O=C(NCCCNCCCCCCCCCCNCCCNC(=O)c1c[nH]c2c(F)cccc12)c1c[nH]c2c(F)cccc12 [Compound 16e] | 2.38
Cc1ccc2[nH]cc(C(=O)NCCCNCCCCNCCCNC(=O)c3c[nH]c4ccc(C)cc34)c2c1 [Compound 15a] | 1.83
COc1ccc2[nH]cc(C(=O)NCCCNCCCCCCCNCCCNC(=O)c3c[nH]c4ccc(OC)cc34)c2c1.O=C(O)C(F)(F)F.O=C(O)C(F)(F)F [Compound 14c] | 2.09
Cc1cccc2c(C(=O)NCCCNCCCCCCNCCCNC(=O)c3c[nH]c4c(C)cccc34)c[nH]c12 [Compound 18b] | 2.11

Kindly consider the entry below.
# log10(MIC) lookup, item COc1cccc2c(C(=O)NCCCNCCCCCCCCCCCCNCCCNC(=O)c3c[nH]c4c(OC)cccc34)c[nH]c12.O=C(O)C(F)(F)F.O=C(O)C(F)(F)F [Compound 17f] 0.85
